test system: OVCAR-3; experiment: NCI tumour cell line growth inhibition, 48 h
The source made the active and inactive calls. Rule as the data show it: active = GI50 up to about 1.1 µM and inactive = higher.
Labels: 1 for active, 0 for inactive

compound	class.assignment
Cc1ccc(C(=O)C#Cc2cn(C3CC(O)C(CO)O3)c(=O)[nH]c2=O)cc1 (stereo not given)	0
CN(C)C(=S)/N=c1\ss/c(=N\C(=S)N(C)C)n1-c1ccc(Cl)c(Cl)c1	0
C[C@]12CC[C@H]3[C@@H](CC=C4C[C@@H](O)CC[C@@]43C)[C@@H]1C[C@H](N1CCOCC1)[C@@H]2O	0
O=C1Nc2ccccc2C(=O)O/C(Cc2ccccc2)=N\c2ccccc21	0
Cc1c2c(Cl)c3c(c(Cl)c2c(C)c2c(Cl)c4c(c(Cl)c12)C(c1ccccc1)(c1ccccc1)C4(c1ccccc1)c1ccccc1)C(c1ccccc1)(c1ccccc1)C3(c1ccccc1)c1ccccc1	0
C/C(=C\CNc1ncnc2c1ncn2C1CCCCO1)COP(=O)(O)O (stereo not given)	0
CC1=C(C(=O)Nc2cc(=O)n(C)c(=O)n2C)C(c2ccco2)C(C(=O)Nc2cc(=O)n(C)c(=O)n2C)=C(C)N1	0
NCCCC1NC(=O)/C(=C(O)/C=C/C2CCC[C@@H]2CC2SCCS2)C1=O (stereo not given in full)	0
CC(/C=C/c1ccccc1)=N\NC(N)=S	0
CCOc1ccc(Nc2nc(N)nc(N)c2N=O)cc1	0
CCOC(=O)c1nc2ccc(C(F)(F)F)cc2[nH]c1=O	0
CN(C)CCCNc1ccnc2cc([N+](=O)[O-])ccc12	0
COc1ccc(N[S+]([O-])c2cccc(C)c2)cc1 (stereo not given)	0
Fc1cccc2cc3ccc4cccc5ccc(c12)c3c45	0
COC1=C(Cl)C(=O)c2c(O)ccc(O)c2C1=O	1
COc1ccc(OC)c([N+](=O)[O-])c1-c1nc2sc(C)c(C)n2c1/C=N/N=C(N)N	0
O=C1/C(=C/c2ccc(O)c(CN3CCCCC3)c2)CCC/C1=C\c1ccc(O)c(CN2CCCCC2)c1	0
O=[N+]([O-])C=C(c1ccc(Cl)cc1)c1ccc(Cl)cc1	0
CC12CCCC3(CC(=O)C(C)(C)C3C(=O)C1)C2 (stereo not given)	0
Cc1ccc(NCc2nnc3c(-c4ccccc4)nc4ccccc4n23)cc1	0

---

system: DU-145; assay: NCI tumour cell line growth inhibition, 48 h
Calls of active or inactive are those of the source. No stated cut-off is given here; in the data, active = GI50 up to about 1.1 µM and inactive = higher.
assay.readout: GI50

compound	value.reported
O=C(NCCO)c1c(O)c2ccccc2[nH]c1=O	> 100 µM (inactive)
O=Nn1c2ccccc2c2cc([N+](=O)[O-])ccc21	14.3 µM (inactive)
Cc1ccnc2c1C(=O)C1=C(OC(C)(C)CC1O)C2=O (stereo unspecified)	6.4 µM (inactive)
C[C@H]1C2Cc3cc(N)ccc3[C@@]1(C)CCN2CCc1ccccc1	> 100 µM (inactive)
N=C1C(=N)c2ccccc2-c2ccccc21	1.49 µM (inactive)
N=C(N)c1ccc(OCCCCCOc2ccc(C(=N)N)cc2)cc1 [PENTAMIDINE]	13.2 µM (inactive)
O=C1C=CC(=O)C(N(CCO)CCO)=C1.O=C1C=CC2(O)OCCN(CCO)C2=C1	> 100 µM (inactive)
Cc1ccc(S(=O)(=O)N(CC(O)COc2ccccc2)c2c(F)cccc2F)cc1 (stereo unspecified)	24.9 µM (inactive)
Cc1c2c(Cl)c3c(c(Cl)c2c(C)c2c(Cl)c4c(c(Cl)c12)C(c1ccccc1)(c1ccccc1)C4(c1ccccc1)c1ccccc1)C(c1ccccc1)(c1ccccc1)C3(c1ccccc1)c1ccccc1	> 100 µM (inactive)
Cc1cccc(C)c1NC(=O)/C(CC(=O)CC(c1ccccc1)c1c(O)c2ccccc2oc1=O)=N/O (stereo unspecified)	> 100 µM (inactive)
Cc1cccc(C)c1Nc1nc(C)c(C(=O)CC(=O)C(=O)Nc2c(C(C)C)cccc2C(C)C)s1	> 100 µM (inactive)
Cn1c(C(O)C2(c3cccnc3)SCCCS2)cc2ccccc21 (stereo unspecified)	> 100 µM (inactive)
ON(CCc1ccncc1)Cc1ccccc1	> 100 µM (inactive)
COc1ccc(/C=N\N(C)Cc2cccc3ccsc23)cc1	> 100 µM (inactive)
C=CC(C)(C)NC(C(=O)N1CCC[C@H]1c1nc(-c2nc(C(=O)OCC=C(C)C)c(C)o2)c(C)o1)C(C)C (stereo partly specified)	> 84.7 µM (inactive)
O=C1CN(c2ccccc2)Cc2nc(Cl)ccc2N1	> 100 µM (inactive)
CCOC(=O)c1nc2ccc(C(F)(F)F)cc2[nH]c1=O	> 100 µM (inactive)
CCc1cn2c(/C=N/N=C(N)N)c(-c3cc(C)c(Cl)cc3Cl)nc2s1	1.64 µM (inactive)
COc1ccc(OC)c([N+](=O)[O-])c1-c1nc2sc(C)c(C)n2c1/C=N/N=C(N)N	> 100 µM (inactive)
CCOc1ccc(/N=N/C2C(=O)N(C(=O)CC(=O)Nc3ccccc3)N=C2C)cc1 (stereo unspecified)	> 100 µM (inactive)
CCOC(=O)/C(=C\n1c(=O)sc2ccccc21)C(=O)c1ccccc1	> 100 µM (inactive)

---

tested on: SF-539; test: NCI tumour cell line growth inhibition, 48 h
Activity calls are given as the source filed them. No stated cut-off is given here; in the data, active = GI50 up to about 1.1 µM and inactive = higher.
Labels: active, inactive

compound	assayed.target	class.assignment
CCOC(=O)C1=CN(Cc2ccccc2)C2ON=C(c3ccc(Cl)cc3)C2C1 (stereo not given)	SF-539	inactive
Cc1ccc2nc(-c3nccn3C)cc(C(=O)NC(C)CN(C)C)c2c1 (stereo not given)	SF-539	inactive
COc1ccc([C@H]2c3cc4c(cc3OC(O)(CO)[C@H]2C(=O)O)OCO4)c(OC)c1.COc1ccc([C@H]2c3cc4c(cc3OC3(O)COC(=O)[C@@H]23)OCO4)c(OC)c1 (stereo not given in full)	SF-539	inactive
CN(C)CCNc1nc2c(c(=O)n(C)c(=O)n2C)n1C	SF-539	inactive
O=C(O)c1ccc(C(=O)c2ccccc2C(=O)O)cc1C(=O)O	SF-539	inactive
Cc1ccc(-c2n[nH]c(=O)n2/N=C\c2ccc([N+](=O)[O-])cc2)cc1	SF-539	inactive
COc1cc(OC)c(-c2oc3ccccc3c(=O)c2O)c(OC)c1	SF-539	inactive
CC1CC[C@@]2(OC1)OC1C[C@H]3[C@@H]4CC=C5C[C@@H](OC6OC(CO)C(OC7OC(CO)C(O)C(O)C7O)C(O)C6OC6OC(C)C(O)C(O)C6O)CC[C@]5(C)[C@H]4CC[C@]3(C)C1[C@@H]2C (stereo not given in full)	SF-539	active
C=C(C)C1CC[C@@](C)(O)[C@H](C#N)C1 (stereo not given in full)	SF-539	inactive
CC(=O)NC(Cc1ccccc1)C(=S)N1CCCC1 (stereo not given)	SF-539	inactive
C=C1CC[C@@H]2C13[C@@H]1[C@H](CC(=O)[C@@]23C)C1(C)C (stereo not given in full)	SF-539	inactive
Oc1nc2ccccc2c2oc3ccccc3c12	SF-539	inactive
C1=Cc2nc1c(-c1ccccc1)c1nc(c(-c3ccccc3)c3ccc([nH]3)c(-c3ccccc3)c3ccc([nH]3)c2-c2ccccc2)C=C1	SF-539	inactive
CO/N=[N+](\[O-])NC(C)C	SF-539	inactive
Cc1cccc(C)c1Nc1nc(C)c(C(=O)CC(=O)C(=O)Nc2c(C(C)C)cccc2C(C)C)s1	SF-539	inactive
COc1nc(/C=N/NC(N)=S)nc(OC)n1	SF-539	inactive
NCCCCN(CCCN)/[N+]([O-])=N\O	SF-539	inactive
O=CC12C3CCC1C2C(=O)C3 (stereo not given)	SF-539	inactive
COC(=O)c1ccccc1C1CN=NC12Cc1ccc(C)c(C)c1C2=O (stereo not given)	SF-539	inactive
Clc1nc(Nc2nc3ccccc3[nH]2)nc(Cl)c1-c1ccccc1	SF-539	inactive

---

Listed here are compounds together with their documented GI50.
system: OVCAR-5; assay: NCI tumour cell line growth inhibition, 48 h
The source made the active and inactive calls. Cut-off read from the data, not from the text of the source: active = GI50 up to about 1.1 µM and inactive = higher.

compound	GI50
O=C1C=CC(=O)C(N(CCO)CCO)=C1.O=C1C=CC2(O)OCCN(CCO)C2=C1	> 100 µM (inactive)
CCOC(=O)c1nc2cc(C(F)(F)F)ccc2nc1Nc1ccc(C(=O)NC(C(=O)OCC)C(=O)OCC)cc1	45.1 µM (inactive)
O=c1c(S(=O)(=O)Oc2ccccc2)coc2cc(F)ccc12	> 100 µM (inactive)
COc1ccc(-c2[nH]c(-c3ccc(OC)cc3)c(-c3ccccn3)c2-c2ccccn2)cc1	> 100 µM (inactive)
CC1CC[C@@]2(OC1)OC1C[C@H]3[C@@H]4CC=C5C[C@@H](OC6OC(CO)C(OC7OC(CO)C(O)C(O)C7O)C(O)C6OC6OC(C)C(O)C(O)C6O)CC[C@]5(C)[C@H]4CC[C@]3(C)C1[C@@H]2C (some centres undefined)	1.42 µM (inactive)
O=C1/C(=C\c2ccccc2)C2/C(=C\c3ccccc3)C(=O)/C(=C\c3ccccc3)C2/C1=C\c1ccccc1 (centres undefined)	1.41 µM (inactive)
COCCn1cnc2c(Cl)nc(Nc3ccccc3)nc21	> 100 µM (inactive)
CN(C)CCCNc1ccnc2cc([N+](=O)[O-])ccc12	20.7 µM (inactive)
COc1cc(CCN)c(OC)c(OC)c1	> 100 µM (inactive)
COC(=O)C(=O)C(C#N)c1cccc2ccccc12 (centres undefined)	> 100 µM (inactive)
C=C1CC2[C@H](C)C(=O)CCC2(C)C2=C1C1CCC(C(C)CCC(=C)C(C)C(=O)O)C1(C)CC2=O (some centres undefined)	> 100 µM (inactive)
Cc1cccc(C)c1Nc1nc(C)c(C(=O)CC(=O)C(=O)Nc2c(C(C)C)cccc2C(C)C)s1	> 100 µM (inactive)
O=C1CC(c2ccc(Cl)cc2)C2(C(=O)NC(=O)NC2=O)C(c2ccc(Cl)cc2)C1 (centres undefined)	31.3 µM (inactive)
COc1ccc(C2CC(=O)c3c(O)cc(O)cc3O2)cc1O (centres undefined)	> 100 µM (inactive)
O=C1[C@@H]2C(c3ccncc3)=NO[C@@H]2C(=O)N1c1ccc(Cc2ccc(N3C(=O)[C@H]4C(c5ccncc5)=NO[C@H]4C3=O)cc2)cc1	> 100 µM (inactive)
CC1(C)C[C@H]2[C@H](O)C(CO)=C3C(=O)[C@@H](O)[C@]3(C)[C@H]2C1	> 100 µM (inactive)
CC(C)(C)c1ccc(/C=N/NC(=O)CSCC(=O)N/N=C/c2ccc(C(C)(C)C)cc2)cc1	3.03 µM (inactive)
Cc1ccc(O)c(-c2cscn2)c1	11.2 µM (inactive)
N=C(N)NNC(=O)CCn1[nH]c(=O)c(Cl)c(Cl)c1=O	> 100 µM (inactive)
